Please provide measured growth for the entries that follow.
System: HS 578T breast
assay explanation: NCI-60 one-dose screen, 48 h (100 = growth as untreated, 0 = no growth, -100 = all killed)
recorded conditions: 10 µM unless noted
About 83,000 compounds went through this panel and 20% of them were active in at least one assay; those are over-represented in the sample as a whole.
One number for each entry, in %.

Give the measured growth of COc1ccc(COc2ccc(/C=C3\C(=O)Nc4ccccc43)cc2OC)cc1 . 105

Give the measured growth of CCCn1cnc2c(c1=N)C(c1ccc(Cl)cc1)c1sc3c(CC)cccc3c1O2 (stereo not given) . 4.18

Give the measured growth of COC(=O)c1[nH]nc2c1C1(C(=O)N(C)c3ccccc31)C(C#N)=C(N)O2 (stereo not given) . 99.7

Give the measured growth of N#Cc1c(-c2cccs2)cc(-c2cnccn2)nc1SCC(=O)c1ccc(F)cc1 . 94.2

The following compounds each have a reported value; give each one's growth.
1. O=C(Nc1cccc(Cl)c1)Nc1nc2ccc([N+](=O)[O-])cc2o1
2. NC(=O)c1c(NC(=O)c2ccc(F)cc2F)sc2c1CCC(=O)C2
3. Cc1nc(-c2ccccc2O)ccc1C(=O)N=Nc1c(O)[nH]c2ccc(Br)cc12
4. COc1ccc(NC(=O)Nc2ccc3c(ccn3C(=O)c3cccc(F)c3)c2)cc1

36.4
43.9
91.6
31.6

The following compounds each have a reported value; give each one's growth.
1. CC(Nc1c(C#N)cnc2ccc(-c3cnc(N)nc3)cc12)c1ccccc1 (stereo not given)
2. O=C(O)c1ccc(-n2cc(CNc3cc(F)c(F)c(F)c3)c(-c3ccc(F)cc3)n2)cc1

[-22.5, 97.5]
